Entries and their fold change values follow.
ASSAY: sensitizers of A549 cells to miR-34 induction, primary screen, imaging, A549 dox-inducible miR-34, nuclei and caspase counts (AID 1347080)
RUN_CONDITIONS: A549 miR-34 inducible, Hoechst nuclei count, 48 h; hits give low values; cell number ratio, induced over uninduced
Square brackets hold non-standard residues; d marks the D form. Peptide text beside a SMILES is read from it. Orn = NCCC[CH](N)C(=O)O

{"MOLECULE": "COc1cc([C@@H]2c3cc4c(cc3[C@H](O)C3COC(=O)[C@@H]32)OCO4)cc(OC)c1OC (stereo partly drawn)", "fold change": 0.98}
{"MOLECULE": "OC[C@H]1OC([S-])[C@H](O)[C@@H](O)[C@@H]1O.[Au+] (stereo partly drawn)", "fold change": 0.865}
{"MOLECULE": "CC(=O)OCC(=O)[C@@]12OC3(CCCC3)O[C@@H]1CC1C3CCC4=CC(=O)C=C[C@]4(C)[C@@]3(F)[C@@H](O)C[C@@]12C (stereo partly drawn)", "fold change": 0.917}
{"MOLECULE": "O=C1[C@H](CCC(O)c2ccc(F)cc2)[C@@H](c2ccc(O)cc2)N1c1ccc(F)cc1 (stereo partly drawn)", "fold change": 0.905}
{"MOLECULE": "Nc1ccc(S(=O)(=O)[O-])cc1.Nc1ccc(S(=O)(=O)[O-])cc1.[Zn+2]", "fold change": 0.91}
{"MOLECULE": "N#C[C@@H]1C[C@@H]2C[C@@H]2N1C(=O)[C@@H](N)C12CC3CC(CC(O)(C3)C1)C2", "fold change": 0.886}
{"MOLECULE": "CO/N=C(/C(=O)N[C@@H]1C(=O)N2C(C(=O)OCSC(=O)c3ccco3)=CCS[C@H]12)c1csc(N)n1", "fold change": 0.907}
{"MOLECULE": "O=C1C2CC3CC1CC(O)(C3)C2", "fold change": 0.951}
{"MOLECULE": "CCCCCN=C(N)NN=Cc1c[nH]c2ccc(OC)cc12", "fold change": 1.42}
{"MOLECULE": "CC(=O)CCCCn1cnc2c1c(=O)n(C)c(=O)n2C", "fold change": 0.919}
{"MOLECULE": "CN[C@@H]1C(OC2[C@H](O[C@H]3[C@H](O)[C@@H](O)[C@H](N=C(N)N)[C@@H](O)[C@@H]3N=C(N)N)OC(C)[C@]2(O)CO)OC(CO)C(O)C1O (stereo partly drawn)", "fold change": 0.819}
{"MOLECULE": "CNCC[C@@H](Oc1ccccc1C)c1ccccc1", "fold change": 0.908}
{"MOLECULE": "Cc1nnc(SCC2=C(C(=O)O)N3C(=O)C(NC(=O)Cn4cnnn4)C3SC2)s1 (stereo not drawn)", "fold change": 0.923}
{"MOLECULE": "C[C@H](CCC(=O)O)[C@H]1CCC2C3C(=O)CC4CC(=O)CC[C@]4(C)C3CC(=O)[C@@]21C (stereo partly drawn)", "fold change": 0.851}
{"MOLECULE": "CCOC(=O)CCC(=O)OC1C(OC2C(C)C(OC3CC(C)(OC)C(O)C(C)O3)C(C)C(=O)OC(CC)C(C)(O)C(O)C(C)C(=O)C(C)CC2(C)O)OC(C)CC1N(C)C (stereo not drawn)", "fold change": 0.96}
{"MOLECULE": "O=C(O)CC(O)(CC(=O)O)C(=O)O", "fold change": 0.829}
{"MOLECULE": "CC1/C=C/C=C/C=C/C=C/C=C/C=C/C=C/C(O[C@@H]2O[C@H](C)[C@H](O)[C@@H](O)[C@@H]2N)CC(O)C(C(=O)O)C(O)CC(=O)CC(O)CC(O)CC(O)CC(=O)CCCC(=O)CC(=O)OC1C(C)CC(C)C(O)CC(=O)c1ccc(N)cc1 (stereo partly drawn)", "fold change": 0.786}
{"MOLECULE": "Nc1ncnc2nc(-c3ccc(N4CCOCC4)nc3)cc(-c3cccc(Br)c3)c12", "fold change": 0.949}
{"MOLECULE": "C=COCC(F)(F)F", "fold change": 0.911}
{"MOLECULE": "CCOC(=O)C1=C(N)Oc2ccc(Br)cc2C1C(C#N)C(=O)OCC (stereo not drawn)", "fold change": 1.02}
{"MOLECULE": "NC(=O)C1CCCN1C(=O)C(Cc1cnc[nH]1)NC(=O)C1CCC(=O)N1 (stereo not drawn)", "fold change": 0.936}
{"MOLECULE": "CC(=O)OCC(=O)[C@@]1(OC(C)=O)[C@@H](C)CC2C3C[C@H](F)C4=CC(=O)C=C[C@]4(C)[C@@]3(F)[C@@H](O)C[C@@]21C (stereo partly drawn)", "fold change": 0.928}
{"MOLECULE": "C=C[C@@]1(C)CC(=O)[C@@]2(O)[C@](C)(O1)[C@@H](OC(C)=O)[C@@H](O)C1C(C)(C)CC[C@H](O)[C@@]12C (stereo partly drawn)", "fold change": 0.888}
{"MOLECULE": "COc1c(N2C[C@@H]3CCCN[C@@H]3C2)c(F)cc2c(=O)c(C(=O)O)cn(C3CC3)c12", "fold change": 0.953}
{"MOLECULE": "C[C@H](N[C@@H](CCc1ccccc1)C(=O)O)C(=O)N1Cc2ccccc2C[C@H]1C(=O)O", "fold change": 0.868}
{"MOLECULE": "CN(C)C1C(=O)C(C(N)=O)=C(O)C2(O)C(=O)C3=C(O)c4c(O)ccc(Cl)c4C(O)C3CC12 (stereo not drawn)", "fold change": 0.964}
{"MOLECULE": "Cc1ccccc1C(=O)c1ccc(Nc2ccc(Br)cc2N)cc1Cl", "fold change": 0.938}
{"MOLECULE": "Cc1nccnc1N1CCCCC1", "fold change": 0.964}
{"MOLECULE": "CC1(C)C2CCC1(CS(=O)(=O)O)C(=O)/C2=C\\c1ccc(/C=C2\\C(=O)C3(CS(=O)(=O)O)CCC2C3(C)C)cc1", "fold change": 0.905}
{"MOLECULE": "C[C@]1(Cn2ccnn2)C(C(=O)O)N2C(=O)CC2S1(=O)=O (stereo partly drawn)", "fold change": 0.905}
{"MOLECULE": "CC(C)CC1NC(=O)C(CCCN)NC(=O)C(C(C)C)NC(=O)C2CCCN2C(=O)C(Cc2ccccc2)NC(=O)C(CC(C)C)NC(=O)C(CCCN)NC(=O)C(C(C)C)NC(=O)C2CCCN2C(=O)C(Cc2ccccc2)NC1=O (stereo not drawn) (cyclo(FPV[Orn]LFPV[Orn]L); configuration not given here)", "fold change": 0.889}
{"MOLECULE": "CC(=O)OCC(=O)[C@@]12OC(C)(C)O[C@@H]1CC1C3C[C@H](F)C4=CC(=O)C=C[C@]4(C)[C@@]3(F)[C@@H](O)C[C@@]12C (stereo partly drawn)", "fold change": 0.893}
{"MOLECULE": "O=C(O)c1ccc2cc(-c3ccc(O)c(C45CC6CC(CC(C6)C4)C5)c3)ccc2c1", "fold change": 1.3}

###

inhibition values by entry
ASSAY: HepG2 cytotoxicity, primary screen, cytotoxicity control for P. falciparum antimalarial project, cell-based, ATP luminescence (AID 2303);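 further: 0% = DMSO wells and 100% = digitonin-killed cells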
RUN_CONDITIONS: HepG2 viability, 24-48 h, at 10 µM, hits give high values
Calls of active or inactive are those of the source.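 How the source made its calls: active means inhibition above 50%; inactive means the rest.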
OBSERVATION_TYPE: inhibition

{"SMILES_ENTRY": "C[C@@H](CC1CCCCC1)OC(=O)N(C)[C@@H]1CCN(C#N)C1", "OBSERVED_RESULT": "5% (inactive)"}
{"SMILES_ENTRY": "Oc1ccc2[nH]c(-c3cccc(F)c3)nc2c1CN1CCC(N2CCCC2)CC1", "OBSERVED_RESULT": "0% (inactive)"}
{"SMILES_ENTRY": "Cc1ccc(NCC(=O)Nc2ccc(F)c(Cl)c2)cc1S(=O)(=O)N1CCOCC1", "OBSERVED_RESULT": "2% (inactive)"}
{"SMILES_ENTRY": "c1cc2nc(CCCc3nc4ccc(C5=N[C@H]6CCCC[C@H]6N5)cc4[nH]3)[nH]c2cc1C1=N[C@@H]2CCCC[C@@H]2N1", "OBSERVED_RESULT": "10% (inactive)"}
{"SMILES_ENTRY": "Cc1cc2nc(-c3ccc(OCC(=O)NCc4cccc(C(F)(F)F)c4)cc3)[nH]c2cc1C", "OBSERVED_RESULT": "4% (inactive)"}
{"SMILES_ENTRY": "COc1cc2nc(NCC3CCN(c4nc(N)c5cc(OC)c(OC)cc5n4)CC3)nc(N)c2cc1OC", "OBSERVED_RESULT": "12% (inactive)"}
{"SMILES_ENTRY": "N#Cc1cccc(C(=O)Nc2ccc(-c3cccc(CN4CCC(O)CC4)c3)cc2)c1", "OBSERVED_RESULT": "33% (inactive)"}
{"SMILES_ENTRY": "COc1cccc(-c2nc(Nc3ccncc3)c3ncn(C)c3n2)c1", "OBSERVED_RESULT": "14% (inactive)"}
{"SMILES_ENTRY": "O=[N+]([O-])c1cc(C(c2ccc(O)c([N+](=O)[O-])c2)C(Cl)(Cl)Cl)ccc1O", "OBSERVED_RESULT": "2% (inactive)"}

Value source: PubChem BioAssay
